This collection of values is drawn from the Human Domainome abundance scans (Beltran et al. 2025).

B1: SH3 and PX domain-containing protein 2B, residues 155 to 209; numbered along this chain, A1X283 (parent)
chain: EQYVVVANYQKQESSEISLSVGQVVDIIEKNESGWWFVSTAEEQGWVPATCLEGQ

variants of: B1; assay: abundance fitness (aPCA) (normalised: wild type 0, dead -1); higher = more abundant; growth selection in yeast, the domain comes from the species named; settings: Homo sapiens
Criterion: abundance fitness meeting or surpassing -0.1. Met: Condition met. Not met: Condition not met.

For orientation, consider the following solved cases.
primary_sequence | label_class
EQYVVVANYQMQESSEISLSVGQVVDIIEKNESGWWFVSTAEEQGWVPATCLEGQ [K11M] | Condition not met
EQYVVVANYQKQEWSEISLSVGQVVDIIEKNESGWWFVSTAEEQGWVPATCLEGQ [S14W] | Condition not met
EQYVVVANYQKQESSEISLSVGQVNDIIEKNESGWWFVSTAEEQGWVPATCLEGQ [V25N] | Condition not met
EQYVVVANYQKQESSEASLSVGQVVDIIEKNESGWWFVSTAEEQGWVPATCLEGQ [I17A] | Condition not met
EQYVVVANYQKQESSEISLSVGQVVDIIEKNESGWWFVSTAEEQGFVPATCLEGQ [W46F] | Condition met
EQYVVVANYQKQESSEISLSVGQVVDIIEKNESGWWFVSTAEEQGWVPATCLEGM [Q55M] | Condition not met

Inquiry: // inclusive: abundance fitness at least -0.1? input: EQYVVVANYQKQESSEISLSVGQVVDIIEKNESGWWFVSTAEEQGWVPATCLERQ [G54R]
Reply text: Condition met

Inquiry: Does the reported abundance fitness for EQYVVVANYQHQESSEISLSVGQVVDIIEKNESGWWFVSTAEEQGWVPATCLEGQ [K11H] fall at or above the -0.1 mark?
Reply text: Condition met

Inquiry: Hi team, for EQYVVVANKQKQESSEISLSVGQVVDIIEKNESGWWFVSTAEEQGWVPATCLEGQ [Y9K] , is the recorded abundance fitness at or above -0.1?
Reply text: Condition not met

Inquiry: Threshold query (abundance fitness >= -0.1) on MQYVVVANYQKQESSEISLSVGQVVDIIEKNESGWWFVSTAEEQGWVPATCLEGQ [E1M]
Reply text: Condition not met

Inquiry: Does abundance fitness meet or surpass -0.1 for EQYVVVANYQKQESSEISLRVGQVVDIIEKNESGWWFVSTAEEQGWVPATCLEGQ [S20R] ?
Reply text: Condition met
